Target: T1, human SLC34A2 (human, UniProt O95436 1-690)
T1 construct: whole, on cells; also called human solute carrier 34 A2; NaPi2b
T1 sequence (looked up): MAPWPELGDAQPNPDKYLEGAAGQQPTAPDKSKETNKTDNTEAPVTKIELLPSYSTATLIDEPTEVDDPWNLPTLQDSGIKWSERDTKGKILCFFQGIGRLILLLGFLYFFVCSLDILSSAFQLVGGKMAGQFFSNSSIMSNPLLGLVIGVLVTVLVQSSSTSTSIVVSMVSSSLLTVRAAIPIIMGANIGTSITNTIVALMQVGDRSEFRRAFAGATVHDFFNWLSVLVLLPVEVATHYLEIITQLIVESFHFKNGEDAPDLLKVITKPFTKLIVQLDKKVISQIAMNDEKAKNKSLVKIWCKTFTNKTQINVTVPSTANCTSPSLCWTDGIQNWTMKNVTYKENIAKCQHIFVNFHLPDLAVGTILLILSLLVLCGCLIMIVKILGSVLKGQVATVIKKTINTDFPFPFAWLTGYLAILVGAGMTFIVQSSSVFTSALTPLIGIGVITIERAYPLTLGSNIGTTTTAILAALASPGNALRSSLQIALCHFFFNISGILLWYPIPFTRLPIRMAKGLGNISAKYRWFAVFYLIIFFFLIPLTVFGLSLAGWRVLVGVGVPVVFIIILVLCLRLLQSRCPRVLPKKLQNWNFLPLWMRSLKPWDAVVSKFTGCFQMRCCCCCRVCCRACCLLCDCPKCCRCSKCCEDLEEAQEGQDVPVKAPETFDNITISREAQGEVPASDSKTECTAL
Experiment: FACS, OVCAR3 cells
Tag: true (1) if measured Top (MFI) is not below 30000 MFI, false (0) if it is.

# binder, label.value
records = [
    ("62G10E4G8.p3.z10 hIgG1 (antibody, V domains shown, humanized hIgG1) VH: QVQLVQSGAEVKKPGASVKVSCKASGYTFPSYITHWVKQAPGQGLEWIGAIYPGNADTSYIQKFKGRVTLTADKSTSTAYMELSSLRSEDTAVYYCARGTYGTSAWFTYWGQGTLVTVSS VL: EIVMTQSPATLSVSPGERATLSCRARQNIGNNLYWYQQKPGQSPRLLIKYASQSISGIPARFSGSGSGTEFTLTISSLQSEDFAVYFCQQSFSWPLTFGQGTKLEIK", "false (0)"),
    ("62G10E4G8.p3.z1 hIgG1 (antibody, V domains shown, humanized hIgG1) VH: QVQLVQSGAEVKKPGASVKVSCKASGYTFPSYITHWVRQAPGQGLEWMGAIYPGNADTSYIQKFKGRVTMTRDTSTSTVYMELSSLRSEDTAVYYCARGTYGTSAWFTYWGQGTLVTVSS VL: EIVMTQSPATLSVSPGERATLSCRARQNIGNNLYWYQQKPGQAPRLLIYYASQSISGIPARFSGSGSGTEFTLTISSLQSEDFAVYYCQQSFSWPLTFGQGTKLEIK", "true (1)"),
    ("62G10E4G8.p3.z15 hIgG1 (antibody, V domains shown, humanized hIgG1) VH: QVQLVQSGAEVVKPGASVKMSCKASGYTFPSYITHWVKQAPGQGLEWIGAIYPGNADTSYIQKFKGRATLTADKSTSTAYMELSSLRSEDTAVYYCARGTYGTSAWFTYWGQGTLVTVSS VL: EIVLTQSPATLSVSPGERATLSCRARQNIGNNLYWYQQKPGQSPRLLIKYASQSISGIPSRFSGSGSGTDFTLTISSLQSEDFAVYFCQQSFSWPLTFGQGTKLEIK", "false (0)"),
    ("30H9B8F9.p1.z5 hIgG1 (antibody, V domains shown, humanized hIgG1) VH: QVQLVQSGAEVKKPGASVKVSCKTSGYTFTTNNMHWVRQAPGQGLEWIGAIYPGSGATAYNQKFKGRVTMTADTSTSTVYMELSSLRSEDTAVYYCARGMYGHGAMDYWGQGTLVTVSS VL: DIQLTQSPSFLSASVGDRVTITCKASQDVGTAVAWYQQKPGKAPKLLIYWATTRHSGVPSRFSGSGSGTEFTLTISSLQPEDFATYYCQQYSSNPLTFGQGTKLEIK", "false (0)"),
    ("62G10E4G8.p3.z6 hIgG1 (antibody, V domains shown, humanized hIgG1) VH: QVQLVQSGAEVKKPGASVKVSCKASGYTFPSYITHWVRQAPGQGLEWIGAIYPGNADTSYIQKFKGRVTMTADKSTSTVYMELSSLRSEDTAVYYCARGTYGTSAWFTYWGQGTLVTVSS VL: EIVMTQSPATLSVSPGERATLSCRARQNIGNNLYWYQQKPGQSPRLLIKYASQSISGIPARFSGSGSGTEFTLTISSLQSEDFAVYFCQQSFSWPLTFGQGTKLEIK", "false (0)"),
]
